test: Renal clearance in healthy human at 400 mg, po Bid for 1 week by LC-MS/MS analysis; format: ADME, organism-based; details: plasma, read-out: CL_renal

>  <compound>
Cc1nnc(C(=O)NC(C)(C)c2nc(C(=O)NCc3ccc(F)cc3)c(O)c(=O)n2C)o1 [RALTEGRAVIR]

>  <CL renal at 168 h, mL/min>
55

$$$$

====

tested on: Homo sapiens; assay: AUC (0 to tau) in human at 400 mg, po Bid coadministered with atazanavir 400 mg, po qd for 1 week by LC-MS/MS analysis; assay type: ADME, organism-based, Plasma; conditions: in vivo, 168 h, in the assay text read “po qd” for “po Bid”
quantity.kind: AUC (ng·h/mL)

>  <compound>
Cc1nnc(C(=O)NC(C)(C)c2nc(C(=O)NCc3ccc(F)cc3)c(O)c(=O)n2C)o1 [RALTEGRAVIR]

>  <quantity.kind>
AUC

>  <unit.descriptor>
ng·h/mL

>  <value.observed>
6080

$$$$
